# testSystem: Acetylcholinesterase (Homo sapiens)
# experimentalProtocol: Acetylcholinesterase (AChE) small molecule antagonists: enzyme-based qHTS assay (AID 1347397); note: nearly all actives have a fitted effect of over 55% in size
# measurementParameters: AChE enzyme activity inhibition; series mostly up to 115 µM
# Text: National Center for Advancing Translational Sciences [NCATS] Division of Preclinical Innovation [DPI] U.S. Environmental Protection Agency [EPA] National Institutes of Environmental Health Sciences [NIEHS] National Toxicology Program [NTP] U.S. Food and Drug Administration [FDA] Acetylcholinesterase (AChE) is the primary cholinesterase in the body that hydrolyzes a key neurotransmitter, acetylcholine. Inhibition of AChE activity can lead to neurotoxicity. […]
Calls of active or inactive are those of the source. Calls come from the whole dose curve.
Respond only with the outcome that fits, drawn from YES for active, NO for inactive

compound: CCN1CCCC1CNC(=O)c1cc(S(N)(=O)=O)ccc1OC (stereo unspecified)
discreteLabel: NO
//
compound: CO[Si](CCC1CCC2OC2C1)(OC)OC (stereo unspecified)
discreteLabel: NO
//
compound: CC(C)(C)c1ccc(N)cc1
discreteLabel: NO

Test call for this compound, please: O=C1Cc2cc(CCN3CCN(c4nsc5ccccc45)CC3)c(Cl)cc2N1
NO

Lab log entry: Cc1[nH]cnc1-c1ccc(Cl)cc1 — outcome as called in the assay?
NO

Can you look up the reported call for Cc1nccn1CC1CCc2c(c3ccccc3n2C)C1=O (stereo unspecified) for me?
NO

# lookup: test call for CC(C)CCOC(=O)c1ccc(N(C)C)cc1
NO

Dear all, I need the recorded test outcome for Cc1ccccc1N=C(N)N=C(N)N , thank you.
NO

State the result this test recorded for CN(CCOc1ccc(NS(C)(=O)=O)cc1)CCc1ccc(NS(C)(=O)=O)cc1 .
NO

What is the recorded call for this compound in the test? COc1ccccc1OCCNCC(O)COc1cccc2[nH]c3ccccc3c12 (stereo unspecified)
NO

---

# testSystem: Acetylcholinesterase (Homo sapiens) (UniProt P22303)
# Sequence (P22303 whole entry, looked up): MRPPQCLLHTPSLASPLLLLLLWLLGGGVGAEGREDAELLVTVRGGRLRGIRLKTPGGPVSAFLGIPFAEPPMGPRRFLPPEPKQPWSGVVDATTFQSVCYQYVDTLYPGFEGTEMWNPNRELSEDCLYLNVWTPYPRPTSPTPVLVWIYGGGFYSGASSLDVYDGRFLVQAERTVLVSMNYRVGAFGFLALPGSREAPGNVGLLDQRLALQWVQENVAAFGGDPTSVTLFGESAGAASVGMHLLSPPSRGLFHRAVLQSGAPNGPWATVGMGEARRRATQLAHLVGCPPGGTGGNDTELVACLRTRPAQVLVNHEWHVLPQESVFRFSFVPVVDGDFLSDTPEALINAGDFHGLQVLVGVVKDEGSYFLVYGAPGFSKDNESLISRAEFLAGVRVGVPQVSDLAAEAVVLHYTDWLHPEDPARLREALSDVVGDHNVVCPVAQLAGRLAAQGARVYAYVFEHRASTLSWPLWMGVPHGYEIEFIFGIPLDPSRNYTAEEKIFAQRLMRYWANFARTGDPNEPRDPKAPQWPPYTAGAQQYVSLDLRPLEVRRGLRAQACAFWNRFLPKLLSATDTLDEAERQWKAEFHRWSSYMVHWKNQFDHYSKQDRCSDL
# experimentalProtocol: Acetylcholinesterase (AChE) small molecule antagonists: enzyme-based qHTS assay (AID 1347397); note: nearly all actives have a fitted effect of over 55% in size
# measurementParameters: AChE enzyme activity inhibition; series mostly up to 115 µM
Active and inactive are the calls of the source. The call rests on the fitted dose curve.
observable: outcome

Consider the following illustrative entries.
molecule: O=c1[nH]ncc2ccccc12
testSystem: Acetylcholinesterase (Homo sapiens) (UniProt P22303)
endpointResult: inactive

molecule: C(=C\c1ccccc1)/c1ccccc1
testSystem: Acetylcholinesterase (Homo sapiens) (UniProt P22303)
endpointResult: inactive

molecule: OCc1cc(C(O)CNCCCCCCOCCCCc2ccccc2)ccc1O (stereo not drawn)
testSystem: Acetylcholinesterase (Homo sapiens) (UniProt P22303)
endpointResult: inactive

molecule: CCOC(=O)[C@H](CCc1ccccc1)N[C@@H](C)C(=O)N1[C@H](C(=O)O)C[C@@H]2CCC[C@@H]21
testSystem: Acetylcholinesterase (Homo sapiens) (UniProt P22303)
endpointResult: inactive

Give me measured outcome, please, for this molecule: CC(O)CN(CCCN(C)C)CCCN(C)C (stereo not drawn)
inactive

Given CCN1CCC[C@H]1CNC(=O)c1c(OC)ccc(Br)c1OC , respond with its outcome.
inactive

Specify outcome for CCN1CCC[C@H]1CNC(=O)c1cc(S(N)(=O)=O)ccc1OC and stop.
inactive

Given the molecule CC(O)C1CCCCC1 (stereo not drawn) , write its reported outcome.
inactive

For CC(C)(c1cc(Br)c(OCCO)c(Br)c1)c1cc(Br)c(OCCO)c(Br)c1 , write its outcome.
inactive

Find the measured outcome of CCCCCCCCCI and report it.
inactive

State its outcome: CN1CCC(=C2c3ccccc3Sc3ccccc32)CC1
inactive

Recall and state the measured outcome for Nc1nc(-c2ccccc2)c(Br)c(=O)[nH]1 .
inactive

Given the molecule CCCCCCCCCCCCCC(=O)OC , write its reported outcome.
inactive

Reference source: PubChem BioAssay (Tox21)
